Source of measurements: the supplement of paper PMC12350171

Tested on: Salmonella enterica typhimurium
ASSAY_REMARKS: growth AUC normalised to DMSO control (fraction of control); higher = less growth inhibition, active = hit call of the paper
CONDITION_NOTES: 20 µM
Counter-ions that a name gives are not always drawn.
Reported growth AUC normalised to DMSO control values follow for various compounds
MEASURED_PROPERTY: growth AUC normalised to DMSO control

[[record]]
compound = "NCCc1cc[nH]n1 [Betazole hydrochloride]"
tested_on = "Salmonella enterica typhimurium"
assay_value = 0.986

[[record]]
compound = "CC(C)NCC(O)COc1ccc(CCOCC2CC2)cc1 (stereo not given) [Betaxolol hydrochloride]"
tested_on = "Salmonella enterica typhimurium"
assay_value = 0.998

[[record]]
compound = "C[N+]1(C)CCC(=C(c2ccccc2)c2ccccc2)CC1 [Diphemanil methylsulfate]"
tested_on = "Salmonella enterica typhimurium"
assay_value = 0.987

[[record]]
compound = "CC(=O)N(CC(O)CO)c1c(I)c(C(=O)NCC(O)CO)c(I)c(C(=O)NCC(O)CO)c1I (stereo not given) [Iohexol]"
tested_on = "Salmonella enterica typhimurium"
assay_value = 0.997

[[record]]
compound = "CC(=O)c1ccc2c(c1)N(CCCN1CCC(CCO)CC1)c1ccccc1S2"
tested_on = "Salmonella enterica typhimurium"
assay_value = 0.971

[[record]]
compound = "CO/N=C(\\C(=O)N[C@@H]1C(=O)N2C(C(=O)O)=C(COC(C)=O)CS[C@H]12)c1csc(N)n1 [Cefotaxime sodium salt]"
tested_on = "Salmonella enterica typhimurium"
assay_value = 0.00568

[[record]]
compound = "CCC[C@@H]1C[C@@H](C(=O)N[C@@H]([C@H]2O[C@H](SC)[C@H](O)[C@@H](O)[C@H]2O)[C@H](C)Cl)N(C)C1 [Clindamycin hydrochloride]"
tested_on = "Salmonella enterica typhimurium"
assay_value = 0.722

[[record]]
compound = "C[C@H](N)[C@H](O)c1cccc(O)c1 [Metaraminol bitartrate]"
tested_on = "Salmonella enterica typhimurium"
assay_value = 0.992

[[record]]
compound = "N=C(N)NS(=O)(=O)c1ccc(N)cc1"
tested_on = "Salmonella enterica typhimurium"
assay_value = 1.01

[[record]]
compound = "CCN1CCCC1CNC(=O)c1cc(S(=O)(=O)CC)c(N)cc1OC (stereo not given) [Amisulpride]"
tested_on = "Salmonella enterica typhimurium"
assay_value = 0.998

[[record]]
compound = "CO[C@H]1/C=C/O[C@@]2(C)Oc3c(C)c(O)c4c(O)c(c(/C=N/N5CCN(C)CC5)c(O)c4c3C2=O)NC(=O)/C(C)=C\\C=C\\[C@H](C)[C@H](O)[C@@H](C)[C@@H](O)[C@@H](C)[C@H](OC(C)=O)[C@@H]1C"
tested_on = "Salmonella enterica typhimurium"
assay_value = 0.23

[[record]]
compound = "OC(Cn1cncn1)(Cn1cncn1)c1ccc(F)cc1F"
tested_on = "Salmonella enterica typhimurium"
assay_value = 1.01

[[record]]
compound = "Cc1ccc(Cl)c(Nc2ccccc2C(=O)O)c1Cl [Meclofenamic acid sodium salt monohydrate]"
tested_on = "Salmonella enterica typhimurium"
assay_value = 1

[[record]]
compound = "C=CC[N@@+]12CC[C@@]34c5ccccc5N5/C=C6/[C@H]7C[C@H]8[C@@]9(CC[N@@+]8(CC=C)C/C7=C/CO)c7ccccc7N(/C=C(/[C@@H](C[C@@H]31)/C(=C\\CO)C2)[C@H]54)[C@@H]69 [Alcuronium chloride]"
tested_on = "Salmonella enterica typhimurium"
assay_value = 0.94

[[record]]
compound = "CC1Cc2ccccc2N1NC(=O)c1ccc(Cl)c(S(N)(=O)=O)c1 (stereo not given) [Indapamide]"
tested_on = "Salmonella enterica typhimurium"
assay_value = 1

[[record]]
compound = "Nc1nc(Cl)nc2c1ncn2[C@H]1C[C@H](O)[C@@H](CO)O1"
tested_on = "Salmonella enterica typhimurium"
assay_value = 0.985

[[record]]
compound = "CC(=O)[C@H]1CC[C@H]2[C@@H]3C[C@H](C)C4=CC(=O)CC[C@]4(C)[C@H]3[C@@H](O)C[C@]12C"
tested_on = "Salmonella enterica typhimurium"
assay_value = 0.994

[[record]]
compound = "CN1CCC(=C2c3ccccc3CCc3sccc32)CC1 [Pizotifen malate]"
tested_on = "Salmonella enterica typhimurium"
assay_value = 0.992

[[record]]
compound = "CC(NCCc1ccc(O)cc1)C(O)c1ccc(O)cc1 (stereo not given) [Ritodrine hydrochloride]"
tested_on = "Salmonella enterica typhimurium"
assay_value = 1.01

[[record]]
compound = "CO[C@@]1(NC(=O)CSCC#N)C(=O)N2C(C(=O)O)=C(CSc3nnnn3C)CS[C@@H]21 [Cefmetazole sodium salt]"
tested_on = "Salmonella enterica typhimurium"
assay_value = 0.00445

[[record]]
compound = "CN1CCc2c(c3ccccc3n2Cc2ccccc2)C1 [Mebhydroline 1,5-naphtalenedisulfonate]"
tested_on = "Salmonella enterica typhimurium"
assay_value = 0.985

[[record]]
compound = "CC[C@H]1OC(=O)[C@H](C)[C@@H](O[C@H]2C[C@@](C)(OC)[C@@H](O)[C@H](C)O2)[C@H](C)[C@@H](O[C@@H]2O[C@H](C)C[C@H](N(C)C)[C@H]2O)[C@](C)(OC)C[C@@H](C)C(=O)[C@H](C)[C@@H](O)[C@]1(C)O"
tested_on = "Salmonella enterica typhimurium"
assay_value = 0.688

[[record]]
compound = "CC(CN(C)C)CN1c2ccccc2CCc2ccccc21 (stereo not given) [Trimipramine maleate salt]"
tested_on = "Salmonella enterica typhimurium"
assay_value = 1

[[record]]
compound = "C[C@]12CC[C@@H]3c4ccc(OS(=O)(=O)O)cc4CC[C@H]3[C@@H]1CCC2=O [Estropipate piperazine salt]"
tested_on = "Salmonella enterica typhimurium"
assay_value = 0.985

[[record]]
compound = "O=c1oc2ccccc2c(O)c1Cc1c(O)c2ccccc2oc1=O"
tested_on = "Salmonella enterica typhimurium"
assay_value = 0.986


====

Tested on: S. enterica typhimurium WT;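 further: active when median AUC fell below 0.1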
ASSAY_REMARKS: growth AUC normalised to DMSO control (median) (fraction of control); higher = less growth inhibition, active = hit call of the paper
CONDITION_NOTES: 20 µM
Structures can show the parent of a compound that is named as a salt.
MEASURED_PROPERTY: growth AUC normalised to DMSO control

[[record]]
compound = "CC1=C(C(=O)O)N2C(=O)[C@@H](NC(=O)[C@H](N)c3ccccc3)[C@H]2SC1 [Cephalexin monohydrate]"
tested_on = "S. enterica typhimurium WT"
measured_property = "growth AUC normalised to DMSO control"
assay_value = 0.999

[[record]]
compound = "CC(C)OC(=O)C(C)(C)Oc1ccc(C(=O)c2ccc(Cl)cc2)cc1 [Fenofibrate]"
tested_on = "S. enterica typhimurium WT"
measured_property = "growth AUC normalised to DMSO control"
assay_value = 1

[[record]]
compound = "N=C(N)NCc1cccc(I)c1 [Iobenguane sulfate]"
tested_on = "S. enterica typhimurium WT"
measured_property = "growth AUC normalised to DMSO control"
assay_value = 1.01


====

System: Vibrio cholerae
ASSAY_REMARKS: growth AUC normalised to DMSO control (fraction of control); higher = less growth inhibition, active = hit call of the paper
CONDITION_NOTES: 20 µM
Counter-ions that a name gives are not always drawn.
Reported values of growth AUC normalised to DMSO control for individual entries
MEASURED_PROPERTY: growth AUC normalised to DMSO control

[[record]]
compound = "CC(=O)c1ccc2c(c1)N(CCCN(C)C)c1ccccc1S2 [Acetopromazine maleate salt]"
measured_property = "growth AUC normalised to DMSO control"
assay_value = 0.888

[[record]]
compound = "CC1(C)O[C@@H]2C[C@H]3[C@@H]4C[C@H](F)C5=CC(=O)CC[C@]5(C)[C@H]4[C@@H](O)C[C@]3(C)[C@]2(C(=O)CO)O1 [Flurandrenolide]"
measured_property = "growth AUC normalised to DMSO control"
assay_value = 1.03

[[record]]
compound = "O=C(NCCNCC(O)COc1ccc(O)cc1)N1CCOCC1 (centres undefined) [Xamoterol hemifumarate]"
measured_property = "growth AUC normalised to DMSO control"
assay_value = 0.98

[[record]]
compound = "COc1ccc(Cl)cc1C(=O)NCCc1ccc(S(=O)(=O)NC(=O)NC2CCCCC2)cc1 [Glibenclamide]"
measured_property = "growth AUC normalised to DMSO control"
assay_value = 1.03


====

Reported growth AUC normalised to DMSO control values for the following compounds.
System: Vibrio cholerae
ASSAY_REMARKS: growth AUC normalised to DMSO control (fraction of control); higher = less growth inhibition, active = hit call of the paper
CONDITION_NOTES: 20 µM
Counter-ions that a name gives are not always drawn.
MEASURED_PROPERTY: growth AUC normalised to DMSO control

[[record]]
compound = "CC(C)(C)NC[C@H](O)COc1cccc2c1CCCC2=O [(-) Levobunolol hydrochloride]"
assay_value = 0.973

[[record]]
compound = "CC(COc1ccccc1)NC(C)C(O)c1ccc(O)cc1 (stereo not given) [Isoxsuprine hydrochloride]"
assay_value = 1

[[record]]
compound = "COc1ccc2[nH]cc(CCNC(C)=O)c2c1"
assay_value = 0.997

[[record]]
compound = "COc1ccccc1Oc1c(NS(=O)(=O)c2ccc(C(C)(C)C)cc2)nc(-c2ncccn2)nc1OCCO"
assay_value = 1.01

[[record]]
compound = "C[C@]12CC[C@@H]3c4ccc(O)cc4CC[C@H]3[C@@H]1CC[C@@H]2O"
assay_value = 0.992

[[record]]
compound = "CC(NCCc1ccc(O)cc1)C(O)c1ccc(O)cc1 (stereo not given) [Ritodrine hydrochloride]"
assay_value = 0.999

[[record]]
compound = "Nc1ccc(O)c(C(=O)O)c1"
assay_value = 1.02

[[record]]
compound = "CC1=C(CC(=O)O)c2cc(F)ccc2/C1=C\\c1ccc([S+](C)[O-])cc1 (stereo not given)"
assay_value = 1.01

[[record]]
compound = "COc1cc2nc(N3CCN(C(=O)C4CCCO4)CC3)nc(N)c2cc1OC (stereo not given) [Terazosin hydrochloride]"
assay_value = 0.989

[[record]]
compound = "CC(=O)[C@H]1CC[C@H]2[C@@H]3CC=C4C[C@@H](O)CC[C@]4(C)[C@H]3CC[C@]12C"
assay_value = 0.996

